Target: Bromodomain-containing protein 4 (Homo sapiens, UniProt O60885)
Assay: Inhibition of his 6 tagged BRD4 D1 (unknown origin) expressed in Escherichia coli BL21 (DE3) by fluorescence anisotropy assay
VALUE KIND: IC50 (nM)
Give bare numbers, in nM.

// query I am curious: what IC50 value has been reported for `Cc1cc(C)cc(Oc2nccc(-c3c(-c4ccc(C(F)(F)F)cc4)ncn3C3CCN(CCN)CC3)n2)c1` ?
// result 130

* * *

Target: Bromodomain-containing protein 4 (Homo sapiens, UniProt O60885)
Experiment: Binding affinity to human BRD4 BD1 assessed as inhibition constant incubated for 1 hr by competitive binding assay
VALUE KIND: Ki (nM)
One number for each entry, in nM.

// query Would you mind telling me what Ki value was observed for `COc1ccc(NC(=O)c2ccc(NC3=C(C)C(=O)CC3)c(Cl)c2)cc1` ?
// result 77
